test: Plasma pharmacokinetics of DEBIO1143 in patients (LC-MS/MS); assay type: in vivo, human; details: human, plasma, oral, 900 mg, day 5, n=6, mean (SD)
result-type: AUC(0-inf) (ng·h/mL)
API: value field is a number in ng·h/mL; no unit string.

Can you look up the measured AUC(0-inf) of CN[C@@H](C)C(=O)N[C@H]1CN(C(=O)CC(C)C)CC[C@H]2CC[C@@H](C(=O)NC(c3ccccc3)c3ccccc3)N2C1=O [DEBIO1143] for me? 47000

----------
Experiment: Plasma pharmacokinetics of DEBIO1143 in patients (LC-MS/MS)
Type: in vivo, human
Conditions: human, plasma, oral, 40 mg, day 5, n=1; read-out: T max
Method: Pharmacokinetic samples were taken from all patients on day 1 (predose, 0.5, 1, 2, 3, 4, 6, 8, 12, 18 h postdose) and on day 5 (predose, 0.5, 1, 2, 3, 4, 6, 8 h postdose) of the first cycle. […] C max and t max were determined by direct assessment of the observed concentration versus time curves. […] For the detection of cIAP-1 in paraffin-embedded human tissue, a validated immunohistochemical (IHC) assay was used. […] Plasma biomarkers were measured through commercial ELISAs. […]
result-type: Tmax (h)
# output: bare number, implied unit h

// Tmax lookup, key: `CN[C@@H](C)C(=O)N[C@H]1CN(C(=O)CC(C)C)CC[C@H]2CC[C@@H](C(=O)NC(c3ccccc3)c3ccccc3)N2C1=O` 6.1

----------
test: Plasma pharmacokinetics of DEBIO1143 in patients (LC-MS/MS); format: in vivo, human; conditions: human, plasma, oral, 400 mg, day 5, n=3, mean (SD)
result-type: AUC(0-t) (ng·h/mL)
Quick note: give the figure in ng·h/mL, leave out the unit.

Form field: reported AUC(0-t) of `CN[C@@H](C)C(=O)N[C@H]1CN(C(=O)CC(C)C)CC[C@H]2CC[C@@H](C(=O)NC(c3ccccc3)c3ccccc3)N2C1=O` 20100

----------
test: Plasma pharmacokinetics of DEBIO1143 in patients (LC-MS/MS); type: in vivo, human; settings: human, plasma, oral, 40 mg, day 1, n=1
result-type: Cmax (ng/mL)
Give your result in ng/mL as a bare value.

Report Cmax for `CN[C@@H](C)C(=O)N[C@H]1CN(C(=O)CC(C)C)CC[C@H]2CC[C@@H](C(=O)NC(c3ccccc3)c3ccccc3)N2C1=O` please. 627

----------
assay: Plasma pharmacokinetics of DEBIO1143 in patients (LC-MS/MS); format: in vivo, human; settings: human, plasma, oral, 80 mg, day 5, n=3, mean (SD)
result-type: AUC(0-t) (ng·h/mL)
Quick reminder: number only, in ng·h/mL, skip the unit.

Using the record for CN[C@@H](C)C(=O)N[C@H]1CN(C(=O)CC(C)C)CC[C@H]2CC[C@@H](C(=O)NC(c3ccccc3)c3ccccc3)N2C1=O [DEBIO1143] , report its AUC(0-t). 5020

----------
assay: Plasma pharmacokinetics of DEBIO1143 in patients (LC-MS/MS); type: in vivo, human; conditions: human, plasma, oral, all doses; read-out: Average t max
result-type: Tmax

Which value of Tmax has been reported for CN[C@@H](C)C(=O)N[C@H]1CN(C(=O)CC(C)C)CC[C@H]2CC[C@@H](C(=O)NC(c3ccccc3)c3ccccc3)N2C1=O [DEBIO1143] in the records? ~1 h

----------
assay: Plasma pharmacokinetics of DEBIO1143 in patients (LC-MS/MS); type: in vivo, human; details: human, plasma, oral, 260 mg, day 1, n=3, mean (SD)
result-type: AUC(0-t) (ng·h/mL)
Value expressed in ng·h/mL; do not type the unit.

Name the recorded AUC(0-t) for CN[C@@H](C)C(=O)N[C@H]1CN(C(=O)CC(C)C)CC[C@H]2CC[C@@H](C(=O)NC(c3ccccc3)c3ccccc3)N2C1=O [DEBIO1143] . 16300

----------
test: Plasma pharmacokinetics of DEBIO1143 in patients (LC-MS/MS); assay type: in vivo, human; settings: human, plasma, oral, 900 mg, day 5, n=6, mean (SD)
result-type: AUC(0-t) (ng·h/mL)
A number alone suffices; assume ng·h/mL.

Please look up its AUC(0-t): CN[C@@H](C)C(=O)N[C@H]1CN(C(=O)CC(C)C)CC[C@H]2CC[C@@H](C(=O)NC(c3ccccc3)c3ccccc3)N2C1=O [DEBIO1143] 36900

----------
experiment: Plasma pharmacokinetics of DEBIO1143 in patients (LC-MS/MS); type: in vivo, human; conditions: human, plasma, oral, 80 mg, day 5, n=3, mean (SD); read-out: T 1/2 (converted)
result-type: half-life
Returns: string containing the number followed by the unit.

Consider the molecule CN[C@@H](C)C(=O)N[C@H]1CN(C(=O)CC(C)C)CC[C@H]2CC[C@@H](C(=O)NC(c3ccccc3)c3ccccc3)N2C1=O [DEBIO1143] and give its measured half-life. 2.69 h

----------
assay: Plasma pharmacokinetics of DEBIO1143 in patients (LC-MS/MS); type: in vivo, human; conditions: human, plasma, oral, 20 mg, day 1, n=1
result-type: AUC(0-inf)
Answer as a quantity: numeral, then unit.

Looking for the measured AUC(0-inf) of CN[C@@H](C)C(=O)N[C@H]1CN(C(=O)CC(C)C)CC[C@H]2CC[C@@H](C(=O)NC(c3ccccc3)c3ccccc3)N2C1=O [DEBIO1143] , can you help? 643 ng·h/mL

----------
test: Plasma pharmacokinetics of DEBIO1143 in patients (LC-MS/MS); assay type: in vivo, human; conditions: human, plasma, oral, 260 mg, day 5, n=3, mean (SD); read-out: T 1/2 (converted)
result-type: half-life

Any idea what half-life was measured for `CN[C@@H](C)C(=O)N[C@H]1CN(C(=O)CC(C)C)CC[C@H]2CC[C@@H](C(=O)NC(c3ccccc3)c3ccccc3)N2C1=O` ? 3.29 h

----------
assay: Plasma pharmacokinetics of DEBIO1143 in patients (LC-MS/MS); type: in vivo, human; conditions: human, plasma, oral, 900 mg, day 5, n=6, mean (SD)
result-type: Cmax (ng/mL)
The response must be a number in ng/mL with no trailing unit.

Could you tell me which Cmax is on file for CN[C@@H](C)C(=O)N[C@H]1CN(C(=O)CC(C)C)CC[C@H]2CC[C@@H](C(=O)NC(c3ccccc3)c3ccccc3)N2C1=O [DEBIO1143] ? 10300

----------
assay: Plasma pharmacokinetics of DEBIO1143 in patients (LC-MS/MS); type: in vivo, human; conditions: human, plasma, oral, 5 mg, day 5, n=1
result-type: AUC(0-t) (ng·h/mL)
Give just the numeric value; ng·h/mL need not be written.

Record request: AUC(0-t) value, item CN[C@@H](C)C(=O)N[C@H]1CN(C(=O)CC(C)C)CC[C@H]2CC[C@@H](C(=O)NC(c3ccccc3)c3ccccc3)N2C1=O [DEBIO1143] 43.4

----------
Test: Plasma pharmacokinetics of DEBIO1143 in patients (LC-MS/MS)
Format: in vivo, human
Details: human, plasma, po, after oral intake; read-out: Time to peak plasma concentrations
Procedure: Pharmacokinetic samples were taken from all patients on day 1 (predose, 0.5, 1, 2, 3, 4, 6, 8, 12, 18 h postdose) and on day 5 (predose, 0.5, 1, 2, 3, 4, 6, 8 h postdose) of the first cycle. […] C max and t max were determined by direct assessment of the observed concentration versus time curves. […] For the detection of cIAP-1 in paraffin-embedded human tissue, a validated immunohistochemical (IHC) assay was used. […] Plasma biomarkers were measured through commercial ELISAs. […]
result-type: Tmax

Fill in: Tmax of `CN[C@@H](C)C(=O)N[C@H]1CN(C(=O)CC(C)C)CC[C@H]2CC[C@@H](C(=O)NC(c3ccccc3)c3ccccc3)N2C1=O` is ___ 1 to 3 h

----------
Experiment: Plasma pharmacokinetics of DEBIO1143 in patients (LC-MS/MS)
Type: in vivo, human
Settings: human, plasma, oral, 600 mg, day 1, n=3, mean (SD); read-out: T 1/2 (converted)
Method: Pharmacokinetic samples were taken from all patients on day 1 (predose, 0.5, 1, 2, 3, 4, 6, 8, 12, 18 h postdose) and on day 5 (predose, 0.5, 1, 2, 3, 4, 6, 8 h postdose) of the first cycle. […] C max and t max were determined by direct assessment of the observed concentration versus time curves. […] For the detection of cIAP-1 in paraffin-embedded human tissue, a validated immunohistochemical (IHC) assay was used. […] Plasma biomarkers were measured through commercial ELISAs. […]
result-type: half-life

Which half-life value belongs to `CN[C@@H](C)C(=O)N[C@H]1CN(C(=O)CC(C)C)CC[C@H]2CC[C@@H](C(=O)NC(c3ccccc3)c3ccccc3)N2C1=O` ? 5.75 h

----------
test: Plasma pharmacokinetics of DEBIO1143 in patients (LC-MS/MS); format: in vivo, human; conditions: human, plasma, oral, 260 mg, day 5, n=3, median (min–max); read-out: T max
result-type: Tmax (h)
Write the value in h as a bare number.

Can you share its Tmax? I mean this molecule: `CN[C@@H](C)C(=O)N[C@H]1CN(C(=O)CC(C)C)CC[C@H]2CC[C@@H](C(=O)NC(c3ccccc3)c3ccccc3)N2C1=O` 2

Source: paper PMC4365270
